Where these numbers come from: patent US8501153B2

Target: UniProt:P30536
Experiment: In vitro potency assay, competition binding against [3H]PK-11195, human PBR

- molecule: "CCN(CC)C(=O)C1CCCc2c1c1c(OC)cccc1n2CC[18F] (racemic) [Racemate]"
  Ki / nM: 11.5

* * *

Biological target: Wistar rat heart PBR (Rattus norvegicus, UniProt P16257)
Construct: from tissue; host or cells: Wistar rat heart
Assay: In vitro potency assay, competition binding against [3H]PK-11195, rat heart PBR
Conditions: non-radioactive analogues tested; against 0.3 nM [3H]PK-11195; 15 minutes at 25° C.; read-out: Rat Heart Ki
Experimental: Affinity for PBR was screened using a method adapted from Le Fur et al (Life Sci. 1983; USA 33: 449-57). Non-radioactive analogues of the PET tracer of the invention and the associated racemate were tested. Each test compound (dissolved in 50 mM Tris-HCl, pH 7.4, 10 mM MgCl2 containing 1% DMSO) competed for binding to either Wistar rat heart PBR or human PBR against 0.3 nM [^3H] PK-11195. The reaction was carried out in 50 mM Tris-HCl, pH 7.4 10 mM MgCl2 for 15 minutes at 25° C.
Entries annotated with measured Ki
property_measured: Ki (nM)

- compound: "CCN(CC)C(=O)[C@H]1CCCc2c1c1c(OC)cccc1n2CC[18F]"
  measurement_target: "Wistar rat heart PBR (Rattus norvegicus, UniProt P16257)"
  value: 0.87
- compound: "CCN(CC)C(=O)[C@@H]1CCCc2c1c1c(OC)cccc1n2CC[18F] [Alternative Enantiomer]"
  measurement_target: "Wistar rat heart PBR (Rattus norvegicus, UniProt P16257)"
  value: 3.87

* * *

Form field: Ki (one value per entry).
Biological target: human PBR (Homo sapiens)
Sequence (P30536 whole entry): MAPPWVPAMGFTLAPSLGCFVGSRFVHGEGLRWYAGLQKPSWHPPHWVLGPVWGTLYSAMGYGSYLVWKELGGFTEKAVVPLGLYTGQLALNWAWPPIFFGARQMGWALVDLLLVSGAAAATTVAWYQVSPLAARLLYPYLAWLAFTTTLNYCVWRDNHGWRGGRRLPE
Assay: In vitro potency assay, competition binding against [3H]PK-11195, human PBR
Conditions: non-radioactive analogues tested; against 0.3 nM [3H]PK-11195; 15 minutes at 25° C.; read-out: Human Ki
Procedure: Affinity for PBR was screened using a method adapted from Le Fur et al (Life Sci. 1983; USA 33: 449-57). Non-radioactive analogues of the PET tracer of the invention and the associated racemate were tested. Each test compound (dissolved in 50 mM Tris-HCl, pH 7.4, 10 mM MgCl2 containing 1% DMSO) competed for binding to either Wistar rat heart PBR or human PBR against 0.3 nM [^3H] PK-11195. The reaction was carried out in 50 mM Tris-HCl, pH 7.4 10 mM MgCl2 for 15 minutes at 25° C.

- compound: "CCN(CC)C(=O)[C@@H]1CCCc2c1c1c(OC)cccc1n2CC[18F] [Alternative Enantiomer]"
  units: "nM"
  Ki: 14.1
- compound: "CCN(CC)C(=O)[C@H]1CCCc2c1c1c(OC)cccc1n2CC[18F] [PET Tracer of Invention]"
  units: "nM"
  Ki: 9.17
